# EXPERIMENTAL_SYSTEM: Aryl hydrocarbon receptor (Homo sapiens) (UniProt P35869)
# Sequence (P35869 whole entry, looked up): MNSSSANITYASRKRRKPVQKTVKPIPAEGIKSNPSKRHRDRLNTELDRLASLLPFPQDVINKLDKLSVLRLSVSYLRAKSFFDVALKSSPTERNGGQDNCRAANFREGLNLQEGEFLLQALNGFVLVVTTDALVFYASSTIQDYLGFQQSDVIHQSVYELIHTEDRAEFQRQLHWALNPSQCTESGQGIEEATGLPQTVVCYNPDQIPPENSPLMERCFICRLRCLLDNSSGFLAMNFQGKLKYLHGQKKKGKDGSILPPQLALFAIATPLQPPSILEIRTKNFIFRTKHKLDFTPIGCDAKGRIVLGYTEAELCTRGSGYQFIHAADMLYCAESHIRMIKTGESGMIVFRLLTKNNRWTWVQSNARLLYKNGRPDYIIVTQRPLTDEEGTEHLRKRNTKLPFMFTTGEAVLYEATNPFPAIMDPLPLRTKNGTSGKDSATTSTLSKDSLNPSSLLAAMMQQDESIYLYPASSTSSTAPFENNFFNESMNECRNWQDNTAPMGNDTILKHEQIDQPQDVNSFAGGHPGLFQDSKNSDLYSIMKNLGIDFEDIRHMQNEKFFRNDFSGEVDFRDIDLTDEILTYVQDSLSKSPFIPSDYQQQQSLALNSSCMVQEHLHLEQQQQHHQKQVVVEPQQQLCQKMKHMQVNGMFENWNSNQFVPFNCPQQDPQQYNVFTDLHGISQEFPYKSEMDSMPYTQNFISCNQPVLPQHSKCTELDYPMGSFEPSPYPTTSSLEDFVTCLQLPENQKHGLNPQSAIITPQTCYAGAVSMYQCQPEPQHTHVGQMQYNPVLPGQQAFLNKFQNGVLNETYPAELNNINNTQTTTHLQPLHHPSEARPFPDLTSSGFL
# PROTOCOL_DETAILS: qHTS assay to identify small molecule that activate the aryl hydrocarbon receptor (AhR) signaling pathway (AID 743085);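 further: HG2L7.5c1 human HepG2 liver cells with stably integrated DRE-driven firefly reporter; on the % scale 0 is the no-effect control and ±100 the full control effect; nearly all actives have a fitted effect of over 15% in size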
# EXPERIMENTAL_SETUP: HepG2 AhR-luc (HG2L7.5c1), luciferase, 24 h; series mostly up to 70.3 µM
Records with an inconclusive call do not appear. Active and inactive are the calls of the source. The call rests on the fitted dose curve; in most records, active means well fitted activation curve with a large enough effect in the repeat runs; inconclusive means weak or mixed curves; inactive means no such curve, though single readings can be large or run the other way.
MEASUREMENT_TYPE: outcome

COMPOUND	outcome
CO[Si](CCCCl)(OC)OC	inactive
C[C@@H]1C[C@H]2[C@@H]3C[C@H](F)C4=CC(=O)C=C[C@]4(C)[C@@]3(F)[C@@H](O)C[C@]2(C)[C@@]1(O)C(=O)CO	inactive
CCC(C)N (stereo not drawn)	inactive
O=c1[nH]c(=O)c2ccccc2o1	inactive
Nc1ccc(S(=O)(=O)NC(=O)c2ccccc2)cc1	inactive

Task: May I ask what outcome has been recorded for CC(Cl)COP(=O)(OCC(C)Cl)OCC(C)Cl (stereo not drawn) ?
Result: inactive

Task: May I ask what outcome has been recorded for `CCCCOC(=O)C(=O)OCCCC` ?
Result: inactive

Task: May I ask what outcome has been recorded for `Nc1cc(Cl)cc(S(=O)(=O)O)c1O` ?
Result: inactive

Task: May I ask what outcome has been recorded for `CCCOCCOCCOCCO` ?
Result: inactive

Task: May I ask what outcome has been recorded for `CCN(Cc1cccc(S(=O)(=O)O)c1)c1ccccc1` ?
Result: inactive

Task: May I ask what outcome has been recorded for `Cc1nc(C)nc(N2C[C@@H](C)N(c3ccnc([C@@H](C)O)n3)[C@@H](C)C2)n1` ?
Result: inactive

Task: May I ask what outcome has been recorded for `F[Si-2](F)(F)(F)(F)F` ?
Result: inactive

Task: May I ask what outcome has been recorded for Cc1ncc([N+](=O)[O-])n1CC(O)CCl (stereo not drawn) ?
Result: inactive

###

# PROTOCOL_DETAILS: qHTS assay to identify small molecule antagonists of the TGF-beta/Smad signaling pathway - cell viability counter screen (AID 1346824); further: on the % scale 0 is the no-effect control and ±100 the full control effect; nearly all actives have a fitted effect of over 50% in size
# EXPERIMENTAL_SETUP: SBE-bla HEK293T viability, CellTiter-Glo luminescence; series mostly up to 76.8 µM
Records with an inconclusive call do not appear. Calls of active or inactive are those of the source. Calls follow the shape of the dose curve; as a rule, active = well fitted cell-killing curve with a large enough effect in the repeat runs; inconclusive = weak or mixed curves; inactive = flat fitted curve, though single readings scatter.
MEASUREMENT_TYPE: viability change, negative = cytotoxic

MOLECULE	viability change, negative = cytotoxic
C[CH2][Ge]([Cl])([CH2]C)[CH2]C	inactive
CC1(N)CCC(C(C)(C)N)CC1 (configuration not stated)	inactive
CC(C)(C)c1ccc(C=O)cc1	inactive
CC(C)CCCC(C)CC=O (configuration not stated)	inactive

Task: May I ask what viability change, negative = cytotoxic has been recorded for `CCNC(=O)/C=C/c1cccc(Br)c1` ?
Result: inactive

Task: May I ask what viability change, negative = cytotoxic has been recorded for `C[Si]1(C)N[Si](C)(C)N[Si](C)(C)N1` ?
Result: inactive

Task: May I ask what viability change, negative = cytotoxic has been recorded for `C=CCOc1c(Br)cc(C(C)(C)c2cc(Br)c(OCC=C)c(Br)c2)cc1Br` ?
Result: inactive

###

# EXPERIMENTAL_SYSTEM: Luciferin 4-monooxygenase (Photinus pyralis)
# PROTOCOL_DETAILS: qHTS assay to identify small molecule inhibitors of firefly luciferase (AID 1224835); further: nearly all actives have a fitted effect of over 25% in size
# EXPERIMENTAL_SETUP: purified P. pyralis luciferase, luminescence inhibition; series mostly up to 115 µM
# Text: U.S. Tox21 Program National Center for Advancing Translational Sciences [NCATS] NIH Chemical Genomics Center [NCGC] U.S. Environmental Protection Agency [EPA] National Institutes of Environmental Health Sciences [NIEHS] National Toxicology Program [NTP] U.S. Food and Drug Administration [FDA] Tox21 Assay Overview: Firefly (Photinus pyralis) luciferase is one of the most commonly used transcriptional reporters. […]
Records with an inconclusive call do not appear. Activity calls are given as the source filed them. Calls come from the whole dose curve; as a rule, active = well fitted inhibition curve with a large enough effect in the repeat runs; inconclusive = weak or mixed curves; inactive = flat fitted curve, though single readings scatter.
Permitted responses: 1 for active, -1 for inactive

Task: Please state the recorded outcome for this compound: `C[C@H](CCC(=O)O)[C@H]1CC[C@H]2[C@@H]3[C@H](O)C[C@@H]4C[C@H](O)CC[C@]4(C)[C@H]3C[C@H](O)[C@]12C`
Result: -1

Task: Please state the recorded outcome for this compound: `OC[C@@H](O)[C@H](O)[C@@H](O)[C@@H](O)CO`
Result: -1

Task: Please state the recorded outcome for this compound: `Cc1ccccc1N1CCN(CCc2nnc3n2CCCC3)CC1`
Result: -1

Task: Please state the recorded outcome for this compound: CC1CCC(C(C)(C)S)C(=O)C1 (stereo not drawn)
Result: -1

Task: Please state the recorded outcome for this compound: `CC1=CC[C@H](CC=O)C1(C)C`
Result: -1

Task: Please state the recorded outcome for this compound: `O=C(O)c1ccccc1C(=O)OCc1ccccc1`
Result: 1

Task: Please state the recorded outcome for this compound: C[N+](C)(C)CC(O)CCl (stereo not drawn)
Result: -1

Task: Please state the recorded outcome for this compound: C=CCOCC(O)CCl (stereo not drawn)
Result: -1

Task: Please state the recorded outcome for this compound: `c1ccc(CNc2ncnc3nc[nH]c23)cc1`
Result: -1

Task: Please state the recorded outcome for this compound: `CCCCC(=O)N(C)C`
Result: -1

Task: Please state the recorded outcome for this compound: `C[CH2][Ge]([Cl])([CH2]C)[CH2]C`
Result: -1

Task: Please state the recorded outcome for this compound: COCC(=O)Nc1c(I)c(C(=O)NCC(O)CO)c(I)c(C(=O)N(C)CC(O)CO)c1I (stereo not drawn)
Result: -1

Task: Please state the recorded outcome for this compound: `CCCCCCCCCCCCC`
Result: -1

###

# PROTOCOL_DETAILS: qHTS assay to test for compound auto fluorescence at 535 nm (green) in HEK293 cells (AID 720680); further: on the % scale 0 is the no-effect control and ±100 the full control effect
# EXPERIMENTAL_SETUP: green autofluorescence 485/535 nm; series mostly up to 91.3 µM
Active and inactive are the calls of the source. The call rests on the fitted dose curve; in most records, active means well fitted curve in the direction sought with a large enough effect in the repeat runs; inconclusive means weak or mixed curves; inactive means flat fitted curve, though single readings scatter.
MEASUREMENT_TYPE: fluorescence, % of fluorescein

COMPOUND	MEASUREMENT_TYPE	READOUT_VALUE
CC(C)COC(=O)COc1ccc(Cl)cc1Cl	fluorescence, % of fluorescein	inactive
Cc1ccccc1C(=O)N1CC/C(=N\OS(=O)(=O)O)c2ccc(Cl)cc21	fluorescence, % of fluorescein	inactive
CC(C)(c1ccc(Oc2ccc3c(c2)C(=O)OC3=O)cc1)c1ccc(Oc2ccc3c(c2)C(=O)OC3=O)cc1	fluorescence, % of fluorescein	inactive
NCCc1ccn[nH]1	fluorescence, % of fluorescein	-0.0168% [at 18.6 µM] (inactive)
SCCSCCS	fluorescence, % of fluorescein	inactive
Cc1ccccc1N1CCN(CCc2nnc3n2CCCC3)CC1	fluorescence, % of fluorescein	inactive
FC(F)(F)c1ccc(Cl)cc1Cl	fluorescence, % of fluorescein	inactive
C[Si]1(C)N[Si](C)(C)N[Si](C)(C)N1	fluorescence, % of fluorescein	inactive
C=CCOc1c(Br)cc(C(C)(C)c2cc(Br)c(OCC=C)c(Br)c2)cc1Br	fluorescence, % of fluorescein	inactive
CC1(N)CCC(C(C)(C)N)CC1 (centres undefined)	fluorescence, % of fluorescein	inactive

Task: May I ask what fluorescence, % of fluorescein has been recorded for `CNCc1ccccc1` ?
Result: inactive

Task: May I ask what fluorescence, % of fluorescein has been recorded for `CN(C)CCOCCN(C)CCO` ?
Result: inactive

Task: May I ask what fluorescence, % of fluorescein has been recorded for `O=C(CN1CCN(Cc2ccc3c(c2)OCO3)CC1)N1c2ccccc2Sc2ccccc21` ?
Result: inactive

Task: May I ask what fluorescence, % of fluorescein has been recorded for `CNC(=O)NC` ?
Result: inactive

###

# PROTOCOL_DETAILS: qHTS assay to identify small molecule antagonists of the estrogen receptor alpha (ER-alpha) signaling pathway using the BG1 cell line (AID 743080);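 further: BG1 cells stimulated with 17beta-estradiol alongside compound; on the % scale 0 is the no-effect control and ±100 the full control effect; nearly all actives have a fitted effect of over 25% in size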
# EXPERIMENTAL_SETUP: BG1Luc4E2 ERE-luciferase antagonist mode, luminescence; series mostly up to 70.3 µM
Records with an inconclusive call do not appear. Active and inactive are the calls of the source. Calls come from the whole dose curve.
MEASUREMENT_TYPE: outcome

COMPOUND	outcome
Cc1oc(=O)oc1CN1CCN(c2cc3c(cc2F)c(=O)c(C(=O)O)c2n3C(C)S2)CC1 (centres undefined)	inactive
O=c1[nH]c(=O)c2[nH]c(=O)[nH]c2[nH]1	inactive
CC(=O)Nc1ncc([N+](=O)[O-])s1	inactive
CC(C)C(=O)c1ccccc1	inactive

Task: May I ask what outcome has been recorded for `CCN(Cc1cccc(S(=O)(=O)O)c1)c1ccccc1` ?
Result: inactive

Task: May I ask what outcome has been recorded for `N#CCCOCCOCCC#N` ?
Result: inactive

Task: May I ask what outcome has been recorded for `CCNC(=O)NCCCOc1cccc(CN2CCCCC2)c1` ?
Result: inactive

Task: May I ask what outcome has been recorded for `Nc1cc(Cl)cc(S(=O)(=O)O)c1O` ?
Result: inactive

Task: May I ask what outcome has been recorded for CCC(O)C(C)(C)C (centres undefined) ?
Result: inactive

Task: May I ask what outcome has been recorded for `CC(C)(C)c1ccc(C=O)cc1` ?
Result: inactive

Task: May I ask what outcome has been recorded for CC1=NN(c2ccc(S(=O)(=O)O)cc2)C(=O)C1N=Nc1ccccc1 (centres undefined) ?
Result: inactive

Task: May I ask what outcome has been recorded for `CNC(=O)NC` ?
Result: inactive
